Every entry's value here was drawn from patent US20260337190A1.

Test: Dynamic solubility in water, SGF, FaSSIF and FeSSIF
Format: physicochemical
Conditions: FaSSIF, 1 hour, 37 °C
Where a name gives a salt, the structure may show the parent alone.
attributeMeasured: pH of filtrate

[[record]]
compound = "Cc1nc(N[C@H](C)c2cccc(S(F)(F)(F)(F)F)c2)c2cn(C3(CF)CC3)c(=O)cc2n1 [Crystal form A of fumarate salt]"
result = 4.8

[[record]]
compound = "Cc1nc(N[C@H](C)c2cccc(S(F)(F)(F)(F)F)c2)c2cn(C3(CF)CC3)c(=O)cc2n1 [Crystal form A of methanesulfonate salt]"
result = 4.3

[[record]]
compound = "Cc1nc(N[C@H](C)c2cccc(S(F)(F)(F)(F)F)c2)c2cn(C3(CF)CC3)c(=O)cc2n1 [Crystal form A of compound of formula I]"
result = 6.3

[[record]]
compound = "Cc1nc(N[C@H](C)c2cccc(S(F)(F)(F)(F)F)c2)c2cn(C3(CF)CC3)c(=O)cc2n1 [Crystal form A of ethanesulfonate salt]"
result = 4.5

[[record]]
compound = "Cc1nc(N[C@H](C)c2cccc(S(F)(F)(F)(F)F)c2)c2cn(C3(CF)CC3)c(=O)cc2n1 [Crystal form B of citrate salt]"
result = 4.5

